src = ChEMBL document CHEMBL1201862

- System: ACHN
- Assay comment: NCI tumour cell line growth inhibition, 48 h
Calls of active or inactive are those of the source. Rule as the data show it: active = GI50 up to about 1.1 µM and inactive = higher.
Measurement name: GI50

Consider the reported GI50 for these molecules:
CNc1ccc([S+]([O-])Nc2ccccc2)cc1 (configuration not stated) = 84.7 µM (inactive)
Cc1csc2nc3[nH]ncc3c(=O)n12 = > 100 µM (inactive)
CSc1snc2sc3c(Cl)nnnc3c12 = 11.1 µM (inactive)
CO/C=C(/C(=O)OC)c1ccccc1[C@H]1C[C@@H]1c1ccccc1 = 22.5 µM (inactive)
O=S(=O)(O)C(O)/C=C/c1ccccc1 (configuration not stated) = > 100 µM (inactive)

In plain terms, CNC(=S)N(C1CCCCC1)C1CCCCC1 has a documented GI50 of 98.4 µM (inactive)

The molecule listed as Cc1cc(=O)n2nc(CSc3nnc(S)s3)sc2n1 has a reported GI50 of > 100 µM (inactive)
